# ASSAY_TARGET: GST-MAGI-3 PDZ 2 (aa. 584-707 of SEQ ID NO:200) (human, UniProt P08515 1-218 = GST)
# Sequence (P08515 whole entry): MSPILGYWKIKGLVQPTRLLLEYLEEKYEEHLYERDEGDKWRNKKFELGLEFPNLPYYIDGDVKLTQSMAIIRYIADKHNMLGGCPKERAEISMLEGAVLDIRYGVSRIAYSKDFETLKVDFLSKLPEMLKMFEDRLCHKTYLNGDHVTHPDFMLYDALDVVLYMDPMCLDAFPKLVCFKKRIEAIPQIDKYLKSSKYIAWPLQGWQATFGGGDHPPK
# MEASUREMENT_NOTES: competition ELISA
ASSAY_METRIC: pIC50
Bear in mind: pIC50 is minus log10 of a mol/L concentration; give just that figure.

Check the records and state pIC50 for ITKV (also called MAGI 3 PDZ2 domain "naturally-selected" ligand)
3.70

Sourced from patent US20030148264A1
